biological target: Sodium-dependent dopamine transporter (Rattus norvegicus) (UniProt P23977); assay: Ratio of reuptake inhibition on DA with respect to binding affinity of DA; type: functional
Sequence (P23977 whole entry): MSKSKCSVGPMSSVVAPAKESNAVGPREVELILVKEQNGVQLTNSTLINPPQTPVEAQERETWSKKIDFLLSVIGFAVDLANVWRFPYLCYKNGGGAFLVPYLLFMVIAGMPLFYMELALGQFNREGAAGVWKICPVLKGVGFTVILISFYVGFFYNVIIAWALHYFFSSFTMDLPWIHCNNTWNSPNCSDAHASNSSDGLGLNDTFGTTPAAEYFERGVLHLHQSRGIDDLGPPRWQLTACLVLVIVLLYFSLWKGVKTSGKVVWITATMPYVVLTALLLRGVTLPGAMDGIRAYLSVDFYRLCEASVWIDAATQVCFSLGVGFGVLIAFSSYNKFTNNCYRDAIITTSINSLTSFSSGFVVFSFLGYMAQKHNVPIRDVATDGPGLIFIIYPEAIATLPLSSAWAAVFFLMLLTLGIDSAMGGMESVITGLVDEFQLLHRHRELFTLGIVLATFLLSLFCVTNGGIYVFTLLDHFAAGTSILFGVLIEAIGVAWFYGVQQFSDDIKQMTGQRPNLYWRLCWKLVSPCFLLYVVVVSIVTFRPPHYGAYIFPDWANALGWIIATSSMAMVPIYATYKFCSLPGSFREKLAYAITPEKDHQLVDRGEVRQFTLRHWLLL
metric name: Ratio
// return just the number, without any unit appended

>>> test_result("C(=C\\c1ccco1)/CN1CCN(CCOC(c2ccccc2)c2ccccc2)CC1")
1.9
>>> test_result("c1ccc(C(OCCN2CCN(CCCc3nc4ccccc4[nH]3)CC2)c2ccccc2)cc1")
0.7
>>> test_result("Fc1ccc(C(OCCN2CCN(Cc3cnc4ccccc4c3)CC2)c2ccc(F)cc2)cc1")
4.6
>>> test_result("Fc1ccc(C(OCCN2CCN(C/C=C/c3ccco3)CC2)c2ccc(F)cc2)cc1")
4
>>> test_result("C(=C\\c1cccnc1)/CN1CCN(CCOC(c2ccccc2)c2ccccc2)CC1")
1.5
>>> test_result("c1ccc(C(OCCN2CCN(CCCc3cccs3)CC2)c2ccccc2)cc1")
1.9
>>> test_result("Fc1ccc(C(OCCN2CCN(CCCc3nc4ccccc4[nH]3)CC2)c2ccc(F)cc2)cc1")
3.2
>>> test_result("c1ccc(C(OCCN2CCN(Cc3nc4ccccc4[nH]3)CC2)c2ccccc2)cc1")
0.8
>>> test_result("Fc1ccc(C(OCCN2CCN(Cc3cc4ccccc4o3)CC2)c2ccc(F)cc2)cc1")
2.9

Prompt line: Request body: readout Ratio, system Sodium-dependent dopamine transporter (Rattus norvegicus) (UniProt P23977), query `c1ccc(C(OCCN2CCN(Cc3cc4ccccc4[nH]3)CC2)c2ccccc2)cc1` . Return the value.
Response line: 8

###

target: Sodium-dependent dopamine transporter (Rattus norvegicus); assay: Reuptake inhibition was determined at the dopamine transporter labeled with radioligand [3H]dopamine in nonstandard conditions on brain membranes obtained from rat; assay type: functional, Membrane
# pIC50 annotations
Scale note: pIC50 = -log10(concentration in M).

>>> test_result("Fc1ccc(C(OCCN2CCN(Cc3cc4ccccc4[nH]3)CC2)c2ccc(F)cc2)cc1")
8.73
>>> test_result("c1ccc(C(OCCN2CCN(Cc3cc4ccccc4o3)CC2)c2ccccc2)cc1")
7.51
>>> test_result("c1ccc(C(OCCN2CCN(Cc3cc4ccccc4[nH]3)CC2)c2ccccc2)cc1")
8.58

Prompt line: Request body: readout pIC50, system Sodium-dependent dopamine transporter (Rattus norvegicus), query `Fc1ccc(C(OCCN2CCN(Cc3cc4ccccc4o3)CC2)c2ccc(F)cc2)cc1` . Return the value.
Response line: 7.91

###

biological target: Sodium-dependent dopamine transporter (Rattus norvegicus, UniProt P23977); experiment: Binding affinity at the dopamine transporter using [125I]RTI-55 in rat caudate membranes.; format: cell membranes
Sequence (P23977 whole entry): as above
Threshold 40 nM. IC50 below it: Satisfied. IC50 at it or above: Not satisfied.

>>> group_label("c1ccc(C(OCCN2CCN(Cc3cc4ccccc4s3)CC2)c2ccccc2)cc1")
"Satisfied"
>>> group_label("c1ccc(C(OCCN2CCN(CCCc3nc4ccccc4[nH]3)CC2)c2ccccc2)cc1")
"Satisfied"
>>> group_label("c1ccc(C(OCCN2CCN(Cc3cnc4ccccc4c3)CC2)c2ccccc2)cc1")
"Not satisfied"
>>> group_label("Fc1ccc(C(OCCN2CCN(Cc3ccc4ccccc4c3)CC2)c2ccc(F)cc2)cc1")
"Satisfied"
>>> group_label("c1ccc(C(OCCN2CCN(Cc3ccc4ncccc4c3)CC2)c2ccccc2)cc1")
"Not satisfied"

Prompt line: Please indicate whether the reported IC50 of `Fc1ccc(C(OCCN2CCN(Cc3ccc4ncccc4c3)CC2)c2ccc(F)cc2)cc1` is strictly below 40 nM.
Response line: Not satisfied

Prompt line: Please indicate whether the reported IC50 of `c1ccc(C(OCCN2CCN(Cc3ccc4ccccc4n3)CC2)c2ccccc2)cc1` is strictly below 40 nM.
Response line: Not satisfied

Prompt line: Please indicate whether the reported IC50 of `Fc1ccc(C(OCCN2CCN(Cc3cc4ccccc4s3)CC2)c2ccc(F)cc2)cc1` is strictly below 40 nM.
Response line: Satisfied

Prompt line: Please indicate whether the reported IC50 of `c1ccc(C(OCCN2CCN(Cc3nc4ccccc4[nH]3)CC2)c2ccccc2)cc1` is strictly below 40 nM.
Response line: Not satisfied

Prompt line: Please indicate whether the reported IC50 of `c1ccc(C(OCCN2CCN(Cc3cc4ccccc4[nH]3)CC2)c2ccccc2)cc1` is strictly below 40 nM.
Response line: Satisfied

Prompt line: Please indicate whether the reported IC50 of `c1ccc(C(OCCN2CCN(Cc3cccc4ccccc34)CC2)c2ccccc2)cc1` is strictly below 40 nM.
Response line: Not satisfied

###

molecular target: Sodium-dependent dopamine transporter (Rattus norvegicus, UniProt P23977); experiment: Reuptake inhibition at the dopamine transporter labeled with radioligand [3H]dopamine on synaptosomes obtained from rat caudate.; type: functional, subcellular, Brain
metric name: IC50
Kindly write the number and append the unit.

Below: 5 compounds and their reported IC50.
>>> test_result("C(=C\\c1cccnc1)/CN1CCN(CCOC(c2ccccc2)c2ccccc2)CC1")
"64 nM"
>>> test_result("Fc1ccc(C(OCCN2CCN(Cc3cc4ccccc4o3)CC2)c2ccc(F)cc2)cc1")
"18.6 nM"
>>> test_result("Fc1ccc(C(OCCN2CCN(C/C=C/c3cccnc3)CC2)c2ccc(F)cc2)cc1")
"14.5 nM"
>>> test_result("c1ccc(C(OCCN2CCN(Cc3cc4ccccc4s3)CC2)c2ccccc2)cc1")
"19 nM"
>>> test_result("Fc1ccc(C(OCCN2CCN(Cc3nc4ccccc4[nH]3)CC2)c2ccc(F)cc2)cc1")
"20 nM"

Prompt line: Would you mind telling me what IC50 value was observed for `c1ccc(C(OCCN2CCN(CCCc3ccco3)CC2)c2ccccc2)cc1` ?
Response line: 8.5 nM

Prompt line: Would you mind telling me what IC50 value was observed for `Fc1ccc(C(OCCN2CCN(CCCc3nc4ccccc4[nH]3)CC2)c2ccc(F)cc2)cc1` ?
Response line: 8.1 nM

Prompt line: Would you mind telling me what IC50 value was observed for `c1ccc(C(OCCN2CCN(CCCc3cccs3)CC2)c2ccccc2)cc1` ?
Response line: 9.7 nM

Prompt line: Would you mind telling me what IC50 value was observed for `C(=C\c1ccco1)/CN1CCN(CCOC(c2ccccc2)c2ccccc2)CC1` ?
Response line: 9.6 nM

Prompt line: Would you mind telling me what IC50 value was observed for `c1ccc(C(OCCN2CCN(Cc3cnc4ccccc4c3)CC2)c2ccccc2)cc1` ?
Response line: 111 nM

###

# IC50 annotations
target: Sodium-dependent dopamine transporter (Rattus norvegicus); test: Binding affinity was determined at the dopamine transporter labeled with radioligand [125 I] RTI-55 in nonstandard conditions

>>> test_result("Fc1ccc(C(OCCN2CCN(Cc3cc4ccccc4[nH]3)CC2)c2ccc(F)cc2)cc1")
"2.94 nM"

Prompt line: Would you mind telling me what IC50 value was observed for `Fc1ccc(C(OCCN2CCN(Cc3cc4ccccc4o3)CC2)c2ccc(F)cc2)cc1` ?
Response line: 17.8 nM

Prompt line: Would you mind telling me what IC50 value was observed for `c1ccc(C(OCCN2CCN(Cc3cc4ccccc4o3)CC2)c2ccccc2)cc1` ?
Response line: 43.6 nM

Prompt line: Would you mind telling me what IC50 value was observed for `c1ccc(C(OCCN2CCN(Cc3cc4ccccc4[nH]3)CC2)c2ccccc2)cc1` ?
Response line: 2.19 nM

###

target: Sodium-dependent dopamine transporter (Rattus norvegicus, UniProt P23977); test: Binding affinity at the dopamine transporter using [125I]RTI-55 in rat caudate membranes.; type: cell membranes
metric name: IC50 (nM)
# value in nM; strip the unit string

Prompt line: Would you mind telling me what IC50 value was observed for `C(=C\c1cccs1)/CN1CCN(CCOC(c2ccccc2)c2ccccc2)CC1` ?
Response line: 6.4

Prompt line: Would you mind telling me what IC50 value was observed for `c1ccc(C(OCCN2CCN(CCCc3cccnc3)CC2)c2ccccc2)cc1` ?
Response line: 78

Prompt line: Would you mind telling me what IC50 value was observed for `Fc1ccc(C(OCCN2CCN(Cc3cc4ccccc4o3)CC2)c2ccc(F)cc2)cc1` ?
Response line: 6.4

Prompt line: Would you mind telling me what IC50 value was observed for `Fc1ccc(C(OCCN2CCN(Cc3cccc4ccccc34)CC2)c2ccc(F)cc2)cc1` ?
Response line: 31

Prompt line: Would you mind telling me what IC50 value was observed for `Fc1ccc(C(OCCN2CCN(Cc3cc4ccccc4[nH]3)CC2)c2ccc(F)cc2)cc1` ?
Response line: 0.7

###

target: Sodium-dependent dopamine transporter (Rattus norvegicus, UniProt P23977); test: Reuptake inhibition at the dopamine transporter labeled with radioligand [3H]dopamine on synaptosomes obtained from rat caudate.; type: functional, subcellular, Brain
Threshold 10 nM. IC50 below it: 1. IC50 at it or above: -1.

Worked set:
>>> group_label("c1ccc(C(OCCN2CCN(CCCc3nc4ccccc4[nH]3)CC2)c2ccccc2)cc1")
-1
>>> group_label("Fc1ccc(C(OCCN2CCN(Cc3cc4ccccc4[nH]3)CC2)c2ccc(F)cc2)cc1")
-1
>>> group_label("c1ccc(C(OCCN2CCN(Cc3cccc4ccccc34)CC2)c2ccccc2)cc1")
-1
>>> group_label("Fc1ccc(C(OCCN2CCN(CCCc3ccco3)CC2)c2ccc(F)cc2)cc1")
1

Could you now consider this next compound?
Prompt line: Please indicate whether the reported IC50 of `Fc1ccc(C(OCCN2CCN(Cc3cccc4ccccc34)CC2)c2ccc(F)cc2)cc1` is strictly below 10 nM.
Response line: -1
